B1: HDV Ribozyme (parent)
chain: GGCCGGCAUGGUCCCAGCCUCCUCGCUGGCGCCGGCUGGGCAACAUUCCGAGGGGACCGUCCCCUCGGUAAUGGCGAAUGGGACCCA

Variants of: B1
Test Protocol: self-cleavage, relative activity (ratio to wild type); higher = more cleavage; co-transcriptional
Answer each item with its documented self-cleavage.

Known results for variants:
GGCCGGCAUGGUCCCAGCCUCCGCGCUGGCGCGGGCUGGGCAACAUUCCGAGGGGACCGUCCCCUCGGUAAUGGCGAAUGGGACCCA [U23G C33G]	0.161
GGCCGGCAUGGUCCCCGCCUCCUCGCUGGCGCGGGCUGGGCAACAUUCCGAGGGGACCGUCCCCUCGGUAAUGGCGAAUGGGACCCA [A16C C33G]	0.227
GGCCGGCAUGGUCCCAGCCUCCUCGCUGGCGCCGGCUGGGCAACAUUCCCAGGGGACCGUCACCUCGGUAAUGGCGAAUGGGACCCA [G50C C62A]	0.475
GGCCGGCAUGGUCCCAGCCUCCUCGCUGGCGCCGGCUUGGCAACAUUCCGAGGGGACCGUCCCCUCGGUAAUGGCGAAUGGGACGCA [G38U C85G]	0.295
GGCCGGCAUGGUGCCAGCCUCCUCGCUGGCGCCGGCUGGGCAACAUUCCGAGGGGACCGUACCCUCGGUAAUGGCGAAUGGGACCCA [C13G C61A]	0.148

// for each variant below, give its self-cleavage
1. GGCCGGCAUGGUCCCAGGCUCCUCGCUGGCGCCGGCUGGGCAACAUUCCGAGGGGACCGUCCCCUCGGUAAUGGCGAAUGGGACCCA [C18G]
2. GGCCGGCAUGGUCCCAGCCCCCUCGCUGGCGCCGGCUGGGCAACAUUCCGAGGGGACCGUCCCCUCGGUAAUGGCGAGUGGGACCCA [U20C A78G]
3. GGCCGGCAUGGUCCCAGCCUCCUCGCUGGCGCCAGCUGGGCAACAUUCCGAGGGGACCGUCCCCUCGGUAAUGGCGAAUGGGACCGA [G34A C86G]
4. GGCCGGCAUGGUCCCAGCCUCCUCUCUGGCGCCGGCGGGGCAACAUUCCGAGGGGACCGUCCCCUCGGUAAUGGCGAAUGGGACCCA [G25U U37G]
5. GGCCGGCAUGGGCCCAGCCUCCUCGCUGGCGCCGGCUGGGCAACAUUCCGAGGGGACCGUCCCCUCGGUAAUGGCGAAUGGGACCAA [U12G C86A]
6. GGCCGGCACGGUCCCACCCUCCUCGCUGGCGCCGGCUGGGCAACAUUCCGAGGGGACCGUCCCCUCGGUAAUGGCGAAUGGGACCCA [U9C G17C]

-- reply
1. 0.131
2. 0.0755
3. 0.121
4. 0.0489
5. 0.906
6. 0.415

These measurements were taken from the RNAGym collection of RNA variant scans (doi:10.7554/elife.80360).
